Assay: logD by shake flask method (octanol / PBS pH 7.4, HPLC)
Assay type: physicochemical
Assay setup: octanol / PBS pH 7.4, shake flask
For each record, write down the corresponding logD.

CNC(=O)C(=O)CC[C@H](NC(=O)c1oc2ccccc2c1C)C(=O)Nc1cccn(CC(=O)N(C)C2C3CC4CC(C3)CC2C4)c1=O (stereo partly drawn) [II-67]    3 to 5

I need logD for every entry listed below, if you could help.
1. CNC(=O)C(=O)CC[C@H](NC(=O)[C@@H]1CCCCN1)C(=O)Nc1cccn(CC(=O)NC2C3CC4CC(C3)CC2C4)c1=O (stereo partly drawn) [II-58]
2. CNC(=O)C(=O)CC[C@H](NC(=O)c1cc2cc(Br)ccc2s1)C(=O)Nc1cccn(CC(=O)NC2C3CC4CC(C3)CC2C4)c1=O (stereo partly drawn)
3. CNC(=O)C(=O)CC[C@H](NC(=O)c1sc(C(F)(F)F)nc1Br)C(=O)Nc1cccn(CC(=O)NC2C3CC4CC(C3)CC2C4)c1=O (stereo partly drawn) [II-16]
4. CNC(=O)C(=O)CC[C@H](NC(=O)c1cc(Br)c(Br)s1)C(=O)Nc1cccn(CC(=O)NC2C3CC4CC(C3)CC2C4)c1=O (stereo partly drawn) [II-45]
5. CNC(=O)C(=O)CC[C@H](NC(=O)c1cnn(C)c1)C(=O)Nc1cccn(CC(=O)NC2C3CC4CC(C3)CC2C4)c1=O (stereo partly drawn) [II-139]

Response:
["1 to 3", "3 to 5", "1 to 3", "3 to 5", "< 1"]
